meta.source: patent EP4775574A1

# ASSAY REMARKS: Pharmacokinetic determination in KM mice
# Type: in vivo
# CONDITION INFO: male, KM, mouse, in vivo, po, 10 mg/kg
MEASURE NAME: Tmax (h)

{"COMPOUND": "COc1c([C@H]2[C@H](C(=O)Nc3ccnc(C(N)=O)c3)O[C@@](C)(C(F)(F)F)[C@H]2C)ccc(F)c1F [Reference compound, reference compound]", "MEASUREMENT UNIT": "h", "EXPERIMENTAL VALUE": 1}

----------
# ASSAY REMARKS: Pharmacokinetic determination in SD rats
# Type: in vivo
# CONDITION INFO: rat, po, gavage 10 mg/kg, plasma, read-out: Time to peak Tmax

{"COMPOUND": "C[C@H]1[C@@H](c2ccc(F)c(F)c2OC2COC2)[C@H](C(=O)Nc2ccc(F)c(C(=N)NO)c2)O[C@@]1(C)C(F)(F)F [Example 11]", "Tmax": "45 min"}

----------
# ASSAY REMARKS: Pharmacokinetic determination in KM mice
# Format: in vivo
# CONDITION INFO: male, KM, mouse, in vivo, po, 10 mg/kg

{"MOLECULE": "COc1c([C@H]2[C@H](C(=O)Nc3ccnc(C(N)=O)c3)O[C@@](C)(C(F)(F)F)[C@H]2C)ccc(F)c1F [Reference compound, reference compound]", "AUC(0-t) / ng·h/mL": 4530}

----------
# ASSAY REMARKS: Pharmacokinetic determination in SD rats
# Type: in vivo
# CONDITION INFO: rat, po, gavage 10 mg/kg, plasma, read-out: Area under the curve AUC0-t
MEASURE NAME: AUC(0-t)

{"MOLECULE": "C[C@H]1[C@@H](c2ccc(F)c(F)c2OC2COC2)[C@H](C(=O)Nc2ccc(F)c(C(=N)NO)c2)O[C@@]1(C)C(F)(F)F [Example 11]", "EXPERIMENTAL VALUE": "2080 ng·h/mL"}

----------
# SYSTEM: Nav1.5 (Homo sapiens, UniProt Q14524)
# Sequence (Q14524 whole entry): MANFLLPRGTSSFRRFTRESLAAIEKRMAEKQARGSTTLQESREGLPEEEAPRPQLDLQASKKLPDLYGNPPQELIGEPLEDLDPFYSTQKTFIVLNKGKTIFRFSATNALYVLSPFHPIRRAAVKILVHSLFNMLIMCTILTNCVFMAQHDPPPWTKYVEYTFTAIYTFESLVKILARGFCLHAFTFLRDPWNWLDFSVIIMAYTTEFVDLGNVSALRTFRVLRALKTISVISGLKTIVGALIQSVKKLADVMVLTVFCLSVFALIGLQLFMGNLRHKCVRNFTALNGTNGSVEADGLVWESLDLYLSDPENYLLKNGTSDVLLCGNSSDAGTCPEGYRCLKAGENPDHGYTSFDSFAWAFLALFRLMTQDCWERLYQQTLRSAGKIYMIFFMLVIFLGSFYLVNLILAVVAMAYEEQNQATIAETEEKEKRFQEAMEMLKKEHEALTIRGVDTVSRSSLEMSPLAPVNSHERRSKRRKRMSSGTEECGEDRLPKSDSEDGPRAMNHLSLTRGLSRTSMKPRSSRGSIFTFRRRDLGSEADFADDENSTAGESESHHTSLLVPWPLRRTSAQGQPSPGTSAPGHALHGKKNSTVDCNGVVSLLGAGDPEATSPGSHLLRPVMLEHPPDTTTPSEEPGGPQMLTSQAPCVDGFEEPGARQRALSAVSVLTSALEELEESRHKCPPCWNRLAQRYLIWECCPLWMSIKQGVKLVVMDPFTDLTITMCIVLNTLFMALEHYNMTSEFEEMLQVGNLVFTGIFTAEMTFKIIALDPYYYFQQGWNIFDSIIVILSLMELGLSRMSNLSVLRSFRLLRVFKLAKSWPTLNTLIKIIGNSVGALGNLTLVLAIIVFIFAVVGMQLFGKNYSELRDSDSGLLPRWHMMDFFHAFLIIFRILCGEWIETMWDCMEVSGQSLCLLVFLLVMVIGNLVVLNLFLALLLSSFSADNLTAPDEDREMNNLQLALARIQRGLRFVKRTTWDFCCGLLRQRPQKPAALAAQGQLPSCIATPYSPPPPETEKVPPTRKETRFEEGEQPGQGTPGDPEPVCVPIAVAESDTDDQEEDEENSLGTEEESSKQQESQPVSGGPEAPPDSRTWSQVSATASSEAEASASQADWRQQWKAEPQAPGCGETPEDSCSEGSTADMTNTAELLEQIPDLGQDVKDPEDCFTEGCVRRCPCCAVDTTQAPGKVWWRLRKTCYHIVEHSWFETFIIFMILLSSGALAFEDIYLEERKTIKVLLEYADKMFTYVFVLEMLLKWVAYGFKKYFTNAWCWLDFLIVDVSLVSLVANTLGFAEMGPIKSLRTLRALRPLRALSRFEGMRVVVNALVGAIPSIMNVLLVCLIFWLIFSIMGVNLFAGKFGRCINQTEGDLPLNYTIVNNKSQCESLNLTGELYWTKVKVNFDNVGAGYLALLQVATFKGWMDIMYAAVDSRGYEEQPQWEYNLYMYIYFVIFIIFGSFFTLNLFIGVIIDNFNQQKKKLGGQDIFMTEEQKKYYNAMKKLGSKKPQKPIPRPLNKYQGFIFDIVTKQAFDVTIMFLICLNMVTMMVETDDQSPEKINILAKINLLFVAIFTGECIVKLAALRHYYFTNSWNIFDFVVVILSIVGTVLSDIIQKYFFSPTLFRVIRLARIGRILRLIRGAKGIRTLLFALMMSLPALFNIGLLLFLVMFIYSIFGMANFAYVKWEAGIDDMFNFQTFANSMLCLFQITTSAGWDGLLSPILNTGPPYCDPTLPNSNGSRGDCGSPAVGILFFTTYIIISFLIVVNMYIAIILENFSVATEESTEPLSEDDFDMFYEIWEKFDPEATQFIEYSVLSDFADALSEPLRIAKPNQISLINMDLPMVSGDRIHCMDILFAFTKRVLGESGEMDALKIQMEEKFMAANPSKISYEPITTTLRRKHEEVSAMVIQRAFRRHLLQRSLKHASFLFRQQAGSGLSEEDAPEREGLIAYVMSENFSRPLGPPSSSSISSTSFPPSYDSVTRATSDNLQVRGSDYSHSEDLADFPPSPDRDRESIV
# ASSAY REMARKS: Sodium channel selectivity test, patch-clamp, Nav1.5
# Format: cell-based
# CONDITION INFO: human, cho/hek293 cells, read-out: Nav1.5 Inhibition rate (%)
MEASURE NAME: inhibition at 30 µM (%)

{"SMILES REPRESENTATION": "COCCOc1c([C@H]2[C@H](C(=O)Nc3ccc(F)c(C(=N)NO)c3)O[C@@](C)(C(F)(F)F)[C@H]2C)ccc(F)c1F", "SYSTEM": "Nav1.5 (Homo sapiens, UniProt Q14524)", "MEASURE NAME": "inhibition at 30 µM", "EXPERIMENTAL VALUE": 51.7}

----------
# SYSTEM: Nav1.8 sodium channel (Homo sapiens, UniProt Q9Y5Y9)
# Construct: host or cells: CHO
# Sequence (Q9Y5Y9 whole entry): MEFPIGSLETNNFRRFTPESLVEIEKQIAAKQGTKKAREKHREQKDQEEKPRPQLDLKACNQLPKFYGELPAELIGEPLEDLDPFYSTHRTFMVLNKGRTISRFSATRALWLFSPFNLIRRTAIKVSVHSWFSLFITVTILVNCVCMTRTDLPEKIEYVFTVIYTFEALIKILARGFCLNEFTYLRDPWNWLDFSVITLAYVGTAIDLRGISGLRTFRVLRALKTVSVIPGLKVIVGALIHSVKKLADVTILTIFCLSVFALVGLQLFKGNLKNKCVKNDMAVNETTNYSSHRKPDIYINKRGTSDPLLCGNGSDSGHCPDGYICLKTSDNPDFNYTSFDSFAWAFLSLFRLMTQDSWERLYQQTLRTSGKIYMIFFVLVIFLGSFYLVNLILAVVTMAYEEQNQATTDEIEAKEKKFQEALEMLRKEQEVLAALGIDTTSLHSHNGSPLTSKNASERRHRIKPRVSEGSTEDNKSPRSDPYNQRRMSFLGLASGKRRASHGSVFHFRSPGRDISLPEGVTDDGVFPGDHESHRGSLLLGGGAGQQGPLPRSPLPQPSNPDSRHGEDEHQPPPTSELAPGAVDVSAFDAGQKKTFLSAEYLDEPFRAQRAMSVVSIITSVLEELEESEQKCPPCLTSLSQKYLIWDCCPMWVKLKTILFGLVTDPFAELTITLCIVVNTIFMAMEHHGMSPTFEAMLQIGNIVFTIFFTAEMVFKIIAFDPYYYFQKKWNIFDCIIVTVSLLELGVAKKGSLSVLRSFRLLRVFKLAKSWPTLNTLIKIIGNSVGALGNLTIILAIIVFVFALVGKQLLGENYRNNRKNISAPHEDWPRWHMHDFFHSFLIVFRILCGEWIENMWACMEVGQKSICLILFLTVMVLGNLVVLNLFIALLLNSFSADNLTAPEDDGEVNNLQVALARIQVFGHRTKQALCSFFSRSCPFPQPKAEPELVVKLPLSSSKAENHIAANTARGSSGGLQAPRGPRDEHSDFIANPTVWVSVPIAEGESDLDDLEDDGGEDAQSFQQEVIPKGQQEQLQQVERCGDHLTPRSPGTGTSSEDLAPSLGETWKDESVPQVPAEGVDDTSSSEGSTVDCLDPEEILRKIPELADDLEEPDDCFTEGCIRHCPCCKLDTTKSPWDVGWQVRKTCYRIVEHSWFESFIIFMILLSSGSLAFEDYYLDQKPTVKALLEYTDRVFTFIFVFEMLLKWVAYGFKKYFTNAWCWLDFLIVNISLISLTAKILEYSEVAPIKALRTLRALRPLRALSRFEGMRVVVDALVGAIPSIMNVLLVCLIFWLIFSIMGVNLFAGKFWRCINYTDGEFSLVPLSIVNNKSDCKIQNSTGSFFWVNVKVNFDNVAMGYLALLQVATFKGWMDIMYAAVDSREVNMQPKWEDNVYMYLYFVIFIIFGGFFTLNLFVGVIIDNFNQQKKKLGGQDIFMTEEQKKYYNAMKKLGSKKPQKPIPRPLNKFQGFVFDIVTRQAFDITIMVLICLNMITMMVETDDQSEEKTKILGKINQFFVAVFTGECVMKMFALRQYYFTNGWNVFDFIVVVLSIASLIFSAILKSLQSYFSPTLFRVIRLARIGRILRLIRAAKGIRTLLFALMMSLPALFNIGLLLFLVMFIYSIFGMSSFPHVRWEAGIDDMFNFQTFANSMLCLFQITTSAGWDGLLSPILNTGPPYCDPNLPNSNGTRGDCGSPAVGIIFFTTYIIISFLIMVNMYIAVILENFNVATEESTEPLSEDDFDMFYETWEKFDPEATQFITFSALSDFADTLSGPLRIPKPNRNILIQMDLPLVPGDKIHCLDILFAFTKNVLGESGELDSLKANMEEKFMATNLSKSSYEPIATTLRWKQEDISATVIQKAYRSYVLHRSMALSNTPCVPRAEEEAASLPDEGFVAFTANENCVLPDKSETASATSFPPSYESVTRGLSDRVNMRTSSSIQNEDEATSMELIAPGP
# ASSAY REMARKS: Blocking activity against sodium channel 1.8 (Nav1.8), whole-cell patch-clamp, inhibition rate
# Format: cell-based
# Description: Experimental objective: The effects of the compounds on the current of the voltage-gated sodium channel (NaV) 1.8 subtype were detected by patch-clamp technique • 2. […] The resting state and half-inactivated state of the sodium current were detected by using a double-pulse protocol. […] Finally, slow capacitance compensation was performed, and related parameters were recorded. […] The current detected in the external solution without compounds for each cell was used as its own control group. […]

{"MOLECULE": "COc1c(C2C(C(=O)Nc3ccc(F)c(C(=N)NC#N)c3)OC(C)(C(F)(F)F)C2C)ccc(F)c1F (stereo not shown) [Example 16]", "SYSTEM": "Nav1.8 sodium channel (Homo sapiens, UniProt Q9Y5Y9)", "Inhibition rate (%)": "95.94%"}
{"MOLECULE": "COc1c([C@H]2[C@H](C(=O)Nc3cc(C(=N)NO)c(F)cc3F)O[C@@](C)(C(F)(F)F)[C@H]2C)ccc(F)c1F [Example 14]", "SYSTEM": "Nav1.8 sodium channel (Homo sapiens, UniProt Q9Y5Y9)", "Inhibition rate (%)": "84.01%"}
{"MOLECULE": "COc1c([C@H]2[C@H](C(=O)Nc3ccc(F)c(C(=O)NO)c3)O[C@@](C)(C(F)(F)F)[C@H]2C)ccc(F)c1F [Example 9]", "SYSTEM": "Nav1.8 sodium channel (Homo sapiens, UniProt Q9Y5Y9)", "Inhibition rate (%)": "97.24%"}
{"MOLECULE": "COc1c([C@H]2[C@H](C(=O)Nc3cc[n+]([O-])c(C(=N)NO)c3)O[C@@](C)(C(F)(F)F)[C@H]2C)ccc(F)c1F [Example 8]", "SYSTEM": "Nav1.8 sodium channel (Homo sapiens, UniProt Q9Y5Y9)", "Inhibition rate (%)": "90.96%"}

----------
# SYSTEM: hNav1.8 (Homo sapiens, UniProt Q9Y5Y9)
# Sequence (Q9Y5Y9 whole entry): as the sequence (Q9Y5Y9 whole entry) above
# Sequence (Q9NY72 25-215 partner limits assumed): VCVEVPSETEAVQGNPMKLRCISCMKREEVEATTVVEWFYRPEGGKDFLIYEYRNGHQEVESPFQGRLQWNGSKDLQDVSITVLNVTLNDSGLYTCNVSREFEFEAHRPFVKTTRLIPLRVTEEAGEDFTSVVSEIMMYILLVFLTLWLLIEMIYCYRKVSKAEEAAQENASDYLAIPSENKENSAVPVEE
# ASSAY REMARKS: Manual patch-clamp IC50 on hNav1.8 channel current (HEK293 hNav1.8/β3)
# CONDITION INFO: HEK293 stably expressing hNav1.8/β3, n = 2, read-out: Inhibitory activity (IC50)
MEASURE NAME: IC50 (nM)

{"MOLECULE": "C[C@H]1[C@@H](c2ccc(F)c(F)c2OC2COC2)[C@H](C(=O)Nc2ccc(F)c(C(=N)NO)c2)O[C@@]1(C)C(F)(F)F [Example 11]", "EXPERIMENTAL VALUE": 0.229}
{"MOLECULE": "COc1c([C@H]2[C@H](C(=O)Nc3ccnc(C(N)=O)c3)O[C@@](C)(C(F)(F)F)[C@H]2C)ccc(F)c1F [Reference compound, reference compound]", "EXPERIMENTAL VALUE": 0.297}

----------
Measured Inhibition rate (%) accompanies every entry in the list below.
# SYSTEM: Nav1.8 sodium channel (Homo sapiens)
# Construct: host or cells: CHO
# ASSAY REMARKS: Blocking activity against sodium channel 1.8 (Nav1.8), whole-cell patch-clamp, inhibition rate
# Assay type: cell-based

{"SMILES REPRESENTATION": "COc1c([C@H]2[C@H](C(=O)Nc3cc(F)c(F)c(C(=N)NO)c3)O[C@@](C)(C(F)(F)F)[C@H]2C)ccc(F)c1F", "SYSTEM": "Nav1.8 sodium channel (Homo sapiens)", "Inhibition rate (%)": 89.85}
{"SMILES REPRESENTATION": "CCONC(=O)c1cc(NC(=O)[C@@H]2O[C@@](C)(C(F)(F)F)[C@@H](C)[C@H]2c2ccc(F)c(F)c2OC)ccn1", "SYSTEM": "Nav1.8 sodium channel (Homo sapiens)", "Inhibition rate (%)": 76.36}
{"SMILES REPRESENTATION": "COc1c([C@H]2[C@H](C(=O)Nc3ccnc(C(=O)NN)c3)O[C@@](C)(C(F)(F)F)[C@H]2C)ccc(F)c1F", "SYSTEM": "Nav1.8 sodium channel (Homo sapiens)", "Inhibition rate (%)": 50.04}
{"SMILES REPRESENTATION": "COc1c([C@H]2[C@H](C(=O)Nc3ccc(F)c(C(=N)NO)c3F)O[C@@](C)(C(F)(F)F)[C@H]2C)ccc(F)c1F", "SYSTEM": "Nav1.8 sodium channel (Homo sapiens)", "Inhibition rate (%)": 56.23}
{"SMILES REPRESENTATION": "COc1c([C@H]2[C@H](C(=O)Nc3ccc(C(F)(F)F)c(C(=N)NO)c3)O[C@@](C)(C(F)(F)F)[C@H]2C)ccc(F)c1F", "SYSTEM": "Nav1.8 sodium channel (Homo sapiens)", "Inhibition rate (%)": 76.58}

----------
# ASSAY REMARKS: Pharmacokinetic determination in SD rats
# Format: in vivo
# CONDITION INFO: rat, in vivo, po, gavage 10 mg/kg, plasma, read-out: Peak concentration Cmax

{"COMPOUND": "COCCOc1c([C@H]2[C@H](C(=O)Nc3ccc(F)c(C(=N)NO)c3)O[C@@](C)(C(F)(F)F)[C@H]2C)ccc(F)c1F [Example 10]", "Cmax (ng/mL)": 1240}

----------
# SYSTEM: Nav1.5 (Homo sapiens, UniProt Q14524)
# ASSAY REMARKS: Sodium channel selectivity test, patch-clamp, Nav1.5
# Type: cell-based
# CONDITION INFO: cho/hek293 cells, read-out: Nav1.5 Inhibition rate (%)

{"SMILES REPRESENTATION": "C[C@H]1[C@@H](c2ccc(F)c(F)c2OC2COC2)[C@H](C(=O)Nc2ccc(F)c(C(=N)NO)c2)O[C@@]1(C)C(F)(F)F", "MEASUREMENT UNIT": "%", "inhibition at 30 µM": 9.11}

----------
# ASSAY REMARKS: Pharmacokinetic determination in SD rats
# Type: in vivo
# CONDITION INFO: male, rat, po, gavage 10 mg/kg, plasma, read-out: Half-life t1/2 (converted)
# Description: SD rats were used as test animals to study the pharmacokinetic behavior in rat plasma after oral administration of the compound example of the present disclosure at a dose of 10 mg/kg. Male SPF-grade SD rats, with body weight (200 ± 20) g. […] The main pharmacokinetic parameters were calculated by WinNonlin 7.0, and the pharmacokinetic experimental results of rats are shown in Table 4 below. […]
MEASURE NAME: half-life

{"COMPOUND": "COc1c([C@H]2[C@H](C(=O)Nc3ccnc(C(N)=O)c3)O[C@@](C)(C(F)(F)F)[C@H]2C)ccc(F)c1F [Reference compound, reference compound]", "EXPERIMENTAL VALUE": "1.32 h"}
